Entry source: PubChem BioAssay (NCI)

system: BT-549 breast; assay: NCI-60 one-dose screen, 48 h (100 = growth as untreated, 0 = no growth, -100 = all killed); conditions: 10 µM unless noted
Compounds without any hit were thinned out: in the full panel of roughly 83,000, 20% have a hit.
reported property: growth (%)
Supply the numeric figure in %, leaving out any unit text.

Prompt line: Name the recorded growth for Cc1ccc(Cn2c(-c3nonc3N)nc3ccccc32)cc1 .
Response line: 68.3

Prompt line: Name the recorded growth for COC1=CC(c2ccc[nH]2)=N/C1=C\c1[nH]c(C)c(C(=O)CCCCC(=O)Nc2ccccc2)c1C .
Response line: 13.9

Prompt line: Name the recorded growth for Nc1nc(N)c2nc(CNc3ccc(C(=O)CC(CCC(=O)O)C(=O)O)cc3)cnc2n1 (centres undefined) .
Response line: 63.3

Prompt line: Name the recorded growth for O=C(/C=C/CN1CCOCC1)Nc1cc2c(Nc3ccc(F)c(Cl)c3F)ncnc2cc1OCCOC(F)F .
Response line: 54.3
